The sequences listed here are annotated with their switch fluorescence ratio.
test system: ATP; assay: switch fluorescence ratio, 500 uM ATP over buffer (Cy3 cluster intensity, sum of 5 cycles each) (fold (ratio)); higher = stronger signal-on switching upon ATP binding; sequences stand for … in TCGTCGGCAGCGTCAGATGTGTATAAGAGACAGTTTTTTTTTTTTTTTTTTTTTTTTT…TC; conditions: aptamer strand: ATP DNA aptamer (quencher-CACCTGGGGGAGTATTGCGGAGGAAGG + anchor), 100 nM annealed; ATP concentration: 500 uM;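 also: ATP exposure 15 min at 22 °C before imaging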
Measurement label: switch fluorescence ratio

# Construct sequence, Target or system, Measurement label, Result value
rows = [
    ("CCCTTATGGT", "ATP", "switch fluorescence ratio", 0.993),
    ("TCGGAATGTT", "ATP", "switch fluorescence ratio", 1.02),
    ("AATTCCGATG", "ATP", "switch fluorescence ratio", 1.29),
    ("TAGGCTCCAA", "ATP", "switch fluorescence ratio", 1.01),
    ("TTTTTACAAG", "ATP", "switch fluorescence ratio", 1.21),
    ("GGGTCGGGAA", "ATP", "switch fluorescence ratio", 1.01),
    ("TACTTCCTCC", "ATP", "switch fluorescence ratio", 3.8),
    ("GTTATTTTTT", "ATP", "switch fluorescence ratio", 0.987),
    ("TCGAGCCGAA", "ATP", "switch fluorescence ratio", 1.04),
    ("TACTTGCGGA", "ATP", "switch fluorescence ratio", 1.03),
    ("TGGGGGCTAG", "ATP", "switch fluorescence ratio", 0.997),
    ("AAGTTTTGAC", "ATP", "switch fluorescence ratio", 1),
    ("TAATAGTAAG", "ATP", "switch fluorescence ratio", 0.996),
    ("TGGAGTAGG", "ATP", "switch fluorescence ratio", 1.01),
    ("TAGTTTTGTG", "ATP", "switch fluorescence ratio", 1.01),
    ("GGGTCGGCTA", "ATP", "switch fluorescence ratio", 1.02),
    ("CGGGGGAGGG", "ATP", "switch fluorescence ratio", 1.16),
    ("GATTCGGGGA", "ATP", "switch fluorescence ratio", 0.999),
    ("AAATTGCGGG", "ATP", "switch fluorescence ratio", 0.994),
    ("TGTAAGAGTG", "ATP", "switch fluorescence ratio", 0.983),
    ("TTATACCAAT", "ATP", "switch fluorescence ratio", 1.01),
    ("GGATGGTTTT", "ATP", "switch fluorescence ratio", 1.02),
    ("TAAAGTTAGG", "ATP", "switch fluorescence ratio", 1),
    ("CGGGTAATGT", "ATP", "switch fluorescence ratio", 0.978),
    ("TGGGGATGTT", "ATP", "switch fluorescence ratio", 1.01),
    ("GGAGGGCATC", "ATP", "switch fluorescence ratio", 0.972),
    ("GGCAATGAAG", "ATP", "switch fluorescence ratio", 1.03),
    ("TCAGGCGTTG", "ATP", "switch fluorescence ratio", 0.971),
    ("CGTAAATATA", "ATP", "switch fluorescence ratio", 1.03),
    ("ATTAATTTTC", "ATP", "switch fluorescence ratio", 0.997),
    ("TTTGCTTTTC", "ATP", "switch fluorescence ratio", 0.994),
    ("TATTTTTGGT", "ATP", "switch fluorescence ratio", 0.986),
    ("CGAAGGATTG", "ATP", "switch fluorescence ratio", 0.992),
    ("ATTGCTAAGC", "ATP", "switch fluorescence ratio", 1.04),
    ("CTTACGGCAC", "ATP", "switch fluorescence ratio", 1.82),
    ("GAAGCCGGAA", "ATP", "switch fluorescence ratio", 1.04),
    ("ATTGGGGTGT", "ATP", "switch fluorescence ratio", 1.01),
    ("AAAAAATAGT", "ATP", "switch fluorescence ratio", 1),
    ("TTTGCTTAAT", "ATP", "switch fluorescence ratio", 1.02),
    ("CAGGGAAGG", "ATP", "switch fluorescence ratio", 0.995),
    ("TCATTTCGGC", "ATP", "switch fluorescence ratio", 0.982),
    ("TTTTCCTGAC", "ATP", "switch fluorescence ratio", 1.64),
    ("AGTTAGGGCG", "ATP", "switch fluorescence ratio", 1.04),
]
